- Tested system: UniProt P10636
- Protocol details: Binding affinity human recombinant tau (243 to 375) expressed in Escherichia coli BL21(DE3)RIL after 1 hr by scintillation counting
Readout type: pKd
Give bare numbers, as −log10 of the molar value.

Return reported pKd; argument: O=C1/C(=C\C=C\c2ccc([N+](=O)[O-])cc2)c2ccccc2N1Cc1ccc(OCC[18F])cc1
7.30

###

- Tested system: Microtubule-associated protein tau (Homo sapiens)
- Sequence (P10636 whole entry): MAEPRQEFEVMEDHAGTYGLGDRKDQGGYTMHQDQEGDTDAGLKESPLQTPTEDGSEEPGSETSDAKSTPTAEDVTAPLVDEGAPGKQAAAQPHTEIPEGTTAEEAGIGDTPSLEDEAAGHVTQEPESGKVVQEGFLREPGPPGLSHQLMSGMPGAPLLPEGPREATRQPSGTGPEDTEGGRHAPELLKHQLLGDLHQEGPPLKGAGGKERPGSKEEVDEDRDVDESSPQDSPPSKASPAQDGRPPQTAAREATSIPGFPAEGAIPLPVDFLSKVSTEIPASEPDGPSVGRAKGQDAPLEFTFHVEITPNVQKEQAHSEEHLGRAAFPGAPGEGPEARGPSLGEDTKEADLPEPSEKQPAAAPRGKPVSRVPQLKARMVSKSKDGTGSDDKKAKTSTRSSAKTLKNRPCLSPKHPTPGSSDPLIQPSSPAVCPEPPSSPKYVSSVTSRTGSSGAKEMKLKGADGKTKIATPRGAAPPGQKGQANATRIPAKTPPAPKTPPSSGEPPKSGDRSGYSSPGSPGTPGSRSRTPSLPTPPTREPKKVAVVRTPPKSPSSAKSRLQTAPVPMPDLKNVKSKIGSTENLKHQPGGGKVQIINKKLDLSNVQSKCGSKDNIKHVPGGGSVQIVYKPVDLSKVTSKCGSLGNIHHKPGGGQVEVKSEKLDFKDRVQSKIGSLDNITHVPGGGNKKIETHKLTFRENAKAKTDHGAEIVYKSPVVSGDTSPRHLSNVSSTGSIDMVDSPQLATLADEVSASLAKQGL
- Protocol details: Displacement of Thio-T from human recombinant tau (243 to 375) expressed in Escherichia coli BL21(DE3)RIL after 1.5 hrs by fluorescence assay
Readout type: Ki (nM)
Numbers only, in nM.

Below are 6 compounds. Give each one its Ki.
1. O=C1/C(=C\C=C\c2ccc([N+](=O)[O-])cc2)c2ccccc2N1Cc1ccccc1
2. CN(C)c1ccc(/C=C2\C(=O)N(Cc3ccncc3)c3ccccc32)cc1
3. O=C1Nc2ccccc2/C1=C/C=C/c1ccccc1 (mixture of isomers)
4. COc1ccc(CN2C(=O)/C(=C\C=C\c3ccc(N(C)C)cc3)c3ccccc32)cc1 (mixture of isomers)
5. O=C1/C(=C\C=C\c2ccccc2)c2ccccc2N1Cc1ccccc1 (mixture of isomers)
6. COc1cccc(CN2C(=O)/C(=C/C=C/c3ccc([N+](=O)[O-])cc3)c3ccccc32)c1

1. 121
2. 364
3. 522
4. 240
5. 682
6. 355

Would you mind listing Ki for each of the following compounds?
1. COc1ccc(/C=C/C=C2\C(=O)Nc3ccccc32)cc1 (mixture of isomers)
2. COc1ccc(CN2C(=O)/C(=C\C=C\c3ccc([N+](=O)[O-])cc3)c3ccccc32)cc1
3. CN(C)c1ccc(/C=C/C=C2\C(=O)N(Cc3ccc([N+](=O)[O-])cc3)c3ccccc32)cc1 (mixture of isomers)
4. COc1ccc(/C=C/C=C2\C(=O)N(Cc3ccccc3)c3ccccc32)cc1 (mixture of isomers)

[169, 72.4, 90, 718]
